Values compiled from the RNAGym collection of RNA variant scans (doi:10.7554/elife.90254).

B1: OR4K15 (parent)
chain: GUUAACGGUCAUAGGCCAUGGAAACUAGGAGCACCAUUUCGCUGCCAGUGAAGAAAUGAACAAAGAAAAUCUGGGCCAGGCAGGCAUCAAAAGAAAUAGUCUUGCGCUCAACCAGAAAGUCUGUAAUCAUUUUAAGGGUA

Variants of: B1
measurementProtocol: self-cleavage, relative activity (ratio to wild type); higher = more cleavage; in vitro, sequencing; the parent is a self-cleaving ribozyme
outcomeMeasure: self-cleavage

mutationCode | reportedResult
U3A U122C | 1.35
U124C A140G | 0.57
U72A U124G | 0.12
A33G U87A | 0.66
A63C U139C | 1.97
C16U A27G | 0.94
U49C U57C | 0.57
C40U U57C | 1.07
U3C U72C | 0.25
G74A A82G | 0.26
U120C A125U | 1.38
A24U G123A | 1.3
A78G U87C | 0.05
U9C A52G | 1.63
U49G U122C | 0.39
U26C U43C | 0.54
A22G U57C | 0.91
G7A A110C | 0.23
U39C A129G | 1.7
U49C A63G | 1.75
A47U U102A | 0.45
G14A A118G | 0.59
